Data export: Ki values recorded with 5-hydroxytryptamine receptor 1B (Rattus norvegicus, UniProt P28564).
Sequence (P28564 whole entry): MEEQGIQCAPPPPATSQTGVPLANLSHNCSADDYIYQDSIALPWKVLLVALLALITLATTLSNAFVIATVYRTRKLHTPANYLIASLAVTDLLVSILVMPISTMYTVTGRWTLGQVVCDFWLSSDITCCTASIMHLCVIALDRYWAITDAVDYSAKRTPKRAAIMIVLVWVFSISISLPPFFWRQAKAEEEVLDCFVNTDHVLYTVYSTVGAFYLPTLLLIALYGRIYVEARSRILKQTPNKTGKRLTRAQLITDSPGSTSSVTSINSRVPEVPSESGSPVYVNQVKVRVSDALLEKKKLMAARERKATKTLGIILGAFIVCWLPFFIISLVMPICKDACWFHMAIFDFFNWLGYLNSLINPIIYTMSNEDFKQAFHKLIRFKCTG

Recorded results for 2 compounds are shown here.
Compound	Ki
COc1cccc2c1C1CCN(CCNC(=O)c3ccc(F)cc3)CC1C2 (stereo not drawn)	0.888 µM
CCCN1CC[C@H]2c3c(cccc3OC)C[C@@H]2C1	5.01 µM

# ---- query compound ----
Memo: "CCCN1CC[C@H]2c3c(cccc3OC)C[C@H]2C1" , reported Ki: 48.5 µM

###

# Tested On: Serotonin 2 (5-HT2) receptor (Rattus norvegicus, UniProt P30994+P08909+P14842)
# Assay: Displacement of [3H]ketanserin from 5-hydroxytryptamine 2 receptor
# Assay type: protein assay
Measured Attribute: Ki (nM)
One number for each entry, in nM.

# annotated cases, reported Ki shown
Compound	Measure Unit	Ki
COc1cccc2c1[C@@H]1CCN(CCCCN3C(=O)CC4(CCCC4)CC3=O)C[C@H]1C2	nM	9.3
COc1cccc2c1[C@@H]1CCN(CCCN3C(=O)CC4(CCCC4)CC3=O)C[C@H]1C2	nM	15.9
CCCN1CC[C@H]2c3c(cccc3OC)C[C@@H]2C1	nM	688
COc1cccc2c1C1CCN(CCNC(=O)c3ccc(F)cc3)CC1C2 (stereo unspecified)	nM	28.9
CCCN1CC[C@H]2c3c(cccc3OC)C[C@H]2C1	nM	965
COc1cccc2c1[C@@H]1CCN(CCCCN3C(=O)CC4(CCCC4)CC3=O)C[C@@H]1C2	nM	35.9

Parameters: items (list). Returns: Ki for each item.
1. COc1cccc2c1C1CCN(CCCCN3C(=O)c4ccccc4S3(=O)=O)CC1C2 (stereo unspecified)
2. COc1cccc2c1C1CCN(CCCN3C(=O)c4ccccc4S3(=O)=O)CC1C2 (stereo unspecified)
3. COc1cccc2c1[C@@H]1CCN(CCCN3C(=O)CC4(CCCC4)CC3=O)C[C@@H]1C2

Reply |
33.4
3
17.4

// field: Ki; key: COc1cccc2c1C1CCN(CCCCN3C(=O)C4C5C=CC(C6C=CC65)C4C3=O)CC1C2.Cl (trans isomer) ; value = 2.58

Where these numbers come from: ChEMBL document CHEMBL1127483
